Data origin, for the record: paper PMC5769417

Test: Single-dose trial, plasma pharmacokinetics
Assay type: in vivo, human
Details: both sexes, human, plasma, oral, both trials, all doses; read-out: range of time to maximum concentration (Tmax)
measurementName: Tmax

Look up and state reported Tmax for CC(C)=CCC[C@](C)(OC1O[C@H](CO)[C@@H](O)[C@H](O)[C@H]1O)[C@H]1CC[C@]2(C)[C@@H]1[C@H](O)C[C@@H]1[C@@]3(C)CC[C@H](O)C(C)(C)[C@@H]3CC[C@]12C (stereo partly shown) [CK]
1.5 to 6 h

----------
Experiment: Single-dose trial, plasma pharmacokinetics
Type: in vivo, human
Settings: both sexes, human, plasma; single-dose trial, 800 mg oral, fasting; read-out: t1/2 (converted)
Experimental: Single-dose pharmacokinetics: The single-dose trial was performed first. […] Drinking before and after medication was prohibited for 2 h, but the amount and time of drinking were not strictly controlled at other times. […] All samples were preserved at −70°C and analyzed with a LC-MS/MS (API 4000 LC-MS/MS, ABI Company, Foster City, CA, USA) at the Institute of Clinical Pharmacology, Central South University (Changsha, China). […]
measurementName: half-life
# output: numeric value plus its unit

Look up and state reported half-life for CC(C)=CCC[C@](C)(OC1O[C@H](CO)[C@@H](O)[C@H](O)[C@H]1O)[C@H]1CC[C@]2(C)[C@@H]1[C@H](O)C[C@@H]1[C@@]3(C)CC[C@H](O)C(C)(C)[C@@H]3CC[C@]12C (stereo partly shown)
25.7 h

----------
Test: Multiple-dose trial, plasma pharmacokinetics
Assay type: in vivo, human
Details: both sexes, human, plasma, po, 100 mg, 100 mg oral after breakfast, Day 1, read-out: t1/2 (converted)
Experimental: Multiple-dose pharmacokinetics: […] All samples were preserved at −70°C and analyzed with a LC-MS/MS (API 4000 LC-MS/MS, ABI Company, Foster City, CA, USA) at the Institute of Clinical Pharmacology, Central South University (Changsha, China). […] Accuracy and precision of the assay were determined by evaluating the performance of the assay controls. […]
measurementName: half-life (h)
Return type: number; implicit unit h.

Look up and state reported half-life for CC(C)=CCC[C@](C)(OC1O[C@H](CO)[C@@H](O)[C@H](O)[C@H]1O)[C@H]1CC[C@]2(C)[C@@H]1[C@H](O)C[C@@H]1[C@@]3(C)CC[C@H](O)C(C)(C)[C@@H]3CC[C@]12C (stereo partly shown)
25.2

----------
Experiment: Multiple-dose trial, plasma pharmacokinetics
Assay type: in vivo, human
Details: both sexes, human, plasma, po, 400 mg, 400 mg qd oral after breakfast, Day 15, read-out: t1/2 (converted)
measurementName: half-life (h)
Return type: number; implicit unit h.

Look up and state reported half-life for CC(C)=CCC[C@](C)(OC1O[C@H](CO)[C@@H](O)[C@H](O)[C@H]1O)[C@H]1CC[C@]2(C)[C@@H]1[C@H](O)C[C@@H]1[C@@]3(C)CC[C@H](O)C(C)(C)[C@@H]3CC[C@]12C (stereo partly shown)
34.2

----------
Experiment: Multiple-dose trial, plasma pharmacokinetics
Format: in vivo, human
Conditions: female, human, plasma, oral, Day 1, Female, read-out: t1/2 (converted)
measurementName: half-life (h)
Return type: number; implicit unit h.

Look up and state reported half-life for CC(C)=CCC[C@](C)(OC1O[C@H](CO)[C@@H](O)[C@H](O)[C@H]1O)[C@H]1CC[C@]2(C)[C@@H]1[C@H](O)C[C@@H]1[C@@]3(C)CC[C@H](O)C(C)(C)[C@@H]3CC[C@]12C (stereo partly shown)
26.4

----------
Experiment: Single-dose trial, plasma pharmacokinetics
Format: in vivo, human
Settings: both sexes, human, plasma; single-dose trial, 50 mg oral, fasting
measurementName: MRT last (h)
Return type: number; implicit unit h.

Look up and state reported MRT last for CC(C)=CCC[C@](C)(OC1O[C@H](CO)[C@@H](O)[C@H](O)[C@H]1O)[C@H]1CC[C@]2(C)[C@@H]1[C@H](O)C[C@@H]1[C@@]3(C)CC[C@H](O)C(C)(C)[C@@H]3CC[C@]12C (stereo partly shown) [CK]
9.1

----------
Test: Single-dose trial, plasma pharmacokinetics
Assay type: in vivo, human
Settings: both sexes, human, plasma; single-dose trial, 25 mg oral, fasting
measurementName: AUC(0-inf)
# output: numeric value plus its unit

Look up and state reported AUC(0-inf) for CC(C)=CCC[C@](C)(OC1O[C@H](CO)[C@@H](O)[C@H](O)[C@H]1O)[C@H]1CC[C@]2(C)[C@@H]1[C@H](O)C[C@@H]1[C@@]3(C)CC[C@H](O)C(C)(C)[C@@H]3CC[C@]12C (stereo partly shown) [CK]
1270 ng·h/mL

----------
Assay: Single-dose trial, plasma pharmacokinetics
Type: in vivo, human
Conditions: both sexes, human, plasma; single-dose trial, 100 mg oral, fasting; read-out: t1/2 (converted)
measurementName: half-life (h)
Return type: number; implicit unit h.

Look up and state reported half-life for CC(C)=CCC[C@](C)(OC1O[C@H](CO)[C@@H](O)[C@H](O)[C@H]1O)[C@H]1CC[C@]2(C)[C@@H]1[C@H](O)C[C@@H]1[C@@]3(C)CC[C@H](O)C(C)(C)[C@@H]3CC[C@]12C (stereo partly shown)
22.4

----------
Experiment: Single-dose trial, plasma pharmacokinetics
Type: in vivo, human
Conditions: both sexes, human, plasma; single-dose trial, 100 mg oral, fasting
measurementName: AUC(0-inf) (ng·h/mL)
Return type: number; implicit unit ng·h/mL.

Look up and state reported AUC(0-inf) for CC(C)=CCC[C@](C)(OC1O[C@H](CO)[C@@H](O)[C@H](O)[C@H]1O)[C@H]1CC[C@]2(C)[C@@H]1[C@H](O)C[C@@H]1[C@@]3(C)CC[C@H](O)C(C)(C)[C@@H]3CC[C@]12C (stereo partly shown)
2820

----------
Assay: Single-dose trial, plasma pharmacokinetics
Type: in vivo, human
Conditions: both sexes, human, plasma; single-dose trial, 25 mg oral, fasting
measurementName: MRT last (h)
Return type: number; implicit unit h.

Look up and state reported MRT last for CC(C)=CCC[C@](C)(OC1O[C@H](CO)[C@@H](O)[C@H](O)[C@H]1O)[C@H]1CC[C@]2(C)[C@@H]1[C@H](O)C[C@@H]1[C@@]3(C)CC[C@H](O)C(C)(C)[C@@H]3CC[C@]12C (stereo partly shown) [CK]
8.9
